- Test: physchem
Quantity measured: chromatographic logP
// return just the number, without any unit appended

Request: Read off the recorded chromatographic logP for C=CC(=O)NC(C)(C)CC(C)=O [diacetone acrylamide]
Result: 0.04

###

Hi there, I'd appreciate the recorded chromatographic logP for every entry that follows.
- Test: n-octanol/water partition coefficient LogP (JIS Z 7260-117)
- Stated conditions: n-octanol/water, LogP, n-octanol/water partition coefficient
// return just the number, without any unit appended

Request: Read off the recorded chromatographic logP for C=C(C)C(=O)OCC(C)O (stereo not shown) [2-hydroxypropyl methacrylate]
Result: 0.78

Request: Read off the recorded chromatographic logP for C=C(C)C(=O)OC(C)(C)C [tert-butyl methacrylate]
Result: 2.48

Request: Read off the recorded chromatographic logP for C=CC(=O)OCC [ethyl acrylate]
Result: 1.32

Request: Read off the recorded chromatographic logP for C=C(C)C(=O)NC(C)C [N-isopropylmethacrylamide]
Result: 0.7

Request: Read off the recorded chromatographic logP for C=C(C)C(=O)OC(C)C [isopropyl methacrylate]
Result: 2.07

Request: Read off the recorded chromatographic logP for C=C(CC(=O)O)C(=O)O
Result: -0.08

Request: Read off the recorded chromatographic logP for C=CC(=O)NCN(C)C [N-(dimethylaminomethyl) acrylamide]
Result: -0.47

Request: Read off the recorded chromatographic logP for C=C(C)C(=O)NCC(C)O (stereo not shown) [N-(2-Hydroxypropyl) methacrylamide]
Result: 0.95

Request: Read off the recorded chromatographic logP for C=C(C)C(=O)NC [N-methylmethacrylamide]
Result: -0.17

Request: Read off the recorded chromatographic logP for C=CC(=O)NCCCN(C)C [N-(dimethylaminopropyl) acrylamide]
Result: -0.24

Request: Read off the recorded chromatographic logP for C=CC(=O)OCCCCCCCCCCCCCCCCCC [stearyl acrylate]
Result: 9.45

Request: Read off the recorded chromatographic logP for C/C=C/C(=O)O
Result: 0.66

Request: Read off the recorded chromatographic logP for C=C(C)C(=O)OCCC [n-propyl methacrylate]
Result: 2.23

Request: Read off the recorded chromatographic logP for C=CC(=O)OCCC(=O)O [β-carboxyethyl acrylate]
Result: 0.31

Request: Read off the recorded chromatographic logP for C=CC(=O)NCCN(C)C [N-(dimethylaminoethyl) acrylamide]
Result: -0.28

Request: Read off the recorded chromatographic logP for O=C(O)/C=C/C(=O)O
Result: -0.45
